// data source = the nanobody polyreactivity screen of Harvey et al. (2022)

Experiment: yeast display, Sf9 membrane polyspecificity reagent, FACS + sequencing; frameworks hold sequencing errors

{"ordered residues": "QVQLVESGGGLVQAGGSLRLSCAASGRIFGLYAMGWYRQAPGKEREFVAAIRLSGGSTYYADSVKGRFTISRDNAKNTVYLQMISLKPEDTAVYYCAADLSYNRGRGSRVYYWGQGTQVTVSS", "polyreactivity (PSR sort gate)": "high polyreactivity"}
{"ordered residues": "QVQLVESGGGLDQAGGSLRLSCAASGFTFAVYAMGWYRQAPAKERELVAAISRSGTRTYYADSVKGRFTISRDNAKNTVYLQMNSLKREDNAVYYCAADNYRHGYEYWGLGTQVTVSS", "polyreactivity (PSR sort gate)": "high polyreactivity"}

* * *

Assay: yeast display, Sf9 membrane polyspecificity reagent, FACS + sequencing; frameworks hold sequencing errors
recorded metric: polyreactivity (PSR sort gate)

{"ordered residues": "QVHLVESGGAFVQAGGSLRLSCAASGRTFGYKAMGWYRQAPVNERELVAAITAGGSTNYADSVKGRFTISRDNAKKTVELQMNRLKPEDTAVYDSAARTYYVPYYYWGQGTQVTVSS", "recorded metric": "polyreactivity (PSR sort gate)", "result": "high polyreactivity"}
{"ordered residues": "QVQLVESGVGLVQAGGSLSLSCAASGFTFHDYAMGWYSQAPGKERELVAAIDWSGGRTYYADSVKGRFTISRDNAKNTVYLQMNSLKPEDTAVYYCAAVRYSRLYWYRLDYGGQGTQVTVSS", "recorded metric": "polyreactivity (PSR sort gate)", "result": "low polyreactivity"}
{"ordered residues": "QVQLVESGGGLVQAGGSLRLSCAASGYTFAYYVMGWYRQAPGKERELVATIRSRAGRTYYADSVKGRFTISRDNAKNTVYLQLNSLKPEDTAVYYCAAGWYYTYDYWGQGTQVTVSS", "recorded metric": "polyreactivity (PSR sort gate)", "result": "high polyreactivity"}
{"ordered residues": "QVQLVESGGGLVQAGGSLRLSCAASGFIFDAYAMGWYRQAPGKERELVAAITRGNTYYADSVTGRFTISRDNAKNTVYLQMNSLKPEDTAVYYCAARYWQSYRSQVTHSSTLDYWGQGTQVTVSS", "recorded metric": "polyreactivity (PSR sort gate)", "result": "low polyreactivity"}

Please give the measured polyreactivity (PSR sort gate) for this sequence: QVQLVESGGGLVQAGGSLRLSCAASGLTFGPYAMGWYRQAPGKERELVAAITSGGRTYYADSVKGRFTISRDNAKNTVYLKMNSLKPEDTAVYYCAADPLSGYDYWGQGTQVTVSS
low polyreactivity

* * *

Experiment: yeast display, Sf9 membrane polyspecificity reagent, FACS + sequencing; frameworks hold sequencing errors
recorded metric: polyreactivity (PSR sort gate)

Here's what some known entries look like.
{"ordered residues": "QVQLVESGGGLVQAGGSLRLSCAASGSIFYDYAMGWYSQEPGKERELVAAISSSGITYYADSVKGRFTISRDNAKTTVYLQMNSLKPEDTAVYYCNARSYLRDYDYWGQGTQVTVTS", "polyreactivity (PSR sort gate)": "high polyreactivity"}
{"ordered residues": "QVQLVESGGGLVQAGGSLRLSCAASGFTFWQYAMGWYRQAPGKERELVAAITWDGGSTYYADSVKGRFTISRDNAKNTVYLQMNSLKPEDTAVYYCAKLFGGTYYEYDYWGQGTQVTVSS", "polyreactivity (PSR sort gate)": "low polyreactivity"}
{"ordered residues": "QVQLVESGGGLVQAGGSLRLICAASGIIFRVYAMGWYRQAPGKERELVATITWSGGSTFYADSVKGRFTISRDNAKNTVDLQRNSLKPEDTAVYYCAARGYLRGEQLYVLIRYDYWGQGTQVTVSS", "polyreactivity (PSR sort gate)": "low polyreactivity"}
{"ordered residues": "QVQLVESGGGLVQAGGSLRLSCAASGSIFEAYAMGWYRQAPGKERELVAAITQSGGSTYYADSVKGRFTISRDNAKNTVYLQMNSLKPEDTAVYYCAADFKYRGPSGDYDYWGQGTQVTVSS", "polyreactivity (PSR sort gate)": "low polyreactivity"}
{"ordered residues": "QVQLVESGGGLVQAGGSRRLSCAASGLIMDYYAMGWYRQAPGKERELVAAISSGGTDTYYADSVKGRFTITRDNAKNTVYLQMNSLKPEDTAVYYCAADSYWSAYDYWGQGTQVTVSS", "polyreactivity (PSR sort gate)": "low polyreactivity"}

Given QVQLVESGGGLVQAGGSLRLSCAASGSIFDVYAMGWYRQAPGKERELVATMSNSAGSTYYADSVKGRFTISRDNAKYTVYLQMNSLKPEDTAVYYCAAVVVYFDEYDYWGQGTQVTVSS , state its recorded polyreactivity (PSR sort gate).
low polyreactivity

Field entry: QVQLVESGGGLVQAGGSLRLSCAASGSTFAWYAMGWYRQAPGKERELVAAISRTGRTYYADSVKGRFTISRDNAKNTVYLQMNSLKPEDTAVYYCAARIERFYRDQRYDYWGQGTQVTVSS
high polyreactivity

* * *

Assay: yeast display, Sf9 membrane polyspecificity reagent, FACS + sequencing; frameworks hold sequencing errors
recorded metric: polyreactivity (PSR sort gate)

Known polyreactivity (PSR sort gate) results, listed for orientation:
{"ordered residues": "QVHLVESGGGLVQAGGSLRLSCAASGSIFGGYAMGWSRQAPGKERELVAAISYRGASTYYADSVKGRFTISRDNAKNTVYLQMNSLKPEDTAVYYCNADDRGSTYVDFDYWGQGTQVTVSS", "polyreactivity (PSR sort gate)": "low polyreactivity"}
{"ordered residues": "QVQLVESGGGLVQAGGSLRLTCAASGFTFHVNTMGWYRQAPGKEMELVAAISWSGGSTYYADSVKGRFTISRDTAKKTVYLQMNSLNPEDTAVYYCNAVPVSYRGVYWGQGTQVTVSS", "polyreactivity (PSR sort gate)": "low polyreactivity"}
{"ordered residues": "QVLLVESGGGLVQAGGSLRLSCAASGRTFVTNAMGWYTQAPGKERELVAGITRRGGSTYYADSVKGRFTISRDNAKNTVYLQMNSLKPEDTAVYYCARRGDTSTRYYYWGQGTQVTVSS", "polyreactivity (PSR sort gate)": "high polyreactivity"}
{"ordered residues": "QVQLVESGGGLVQAGGSLRISSAASGSIFGRYAMGWYRQAPGKERELVAAISSGTSTYYADSVKGRFTISRDNAKNTVYLQRNSLIPEDTAVYYCAARRYSVRSGGTGRMYYWGQGTQVTVSS", "polyreactivity (PSR sort gate)": "high polyreactivity"}
{"ordered residues": "QDQLVESGGGLVQAGGSLSLICAASGFNFALYAMGWYRQAPGKERELVAAINWSGGRTYYADSVKGRFTISRDNAKNTVYLQMNSLKPEDTAVYYCNRRAFSPYAANYYYWGQGTQVTVSS", "polyreactivity (PSR sort gate)": "high polyreactivity"}
{"ordered residues": "QVQLVESGGGLVQAGGSLRLSCPASGSIFKYYAMGWYRQAPGKDRELVAPITDRGSSTYYADSVKGRFTISRDNAKNTVYLQMNSLKPEDTAVYYCAAVYYAFYRFGYWGQGTQVTVSS", "polyreactivity (PSR sort gate)": "high polyreactivity"}
{"ordered residues": "QVQLVESGGGLVQAGGSLRLSCADSGFIFYDYTMGWYRQAPGKERELVAVISRGGSTYYADSVKGRFTISRDNAKNTVYLQMNSLNPEDSAVYYCAARPRWYTFTRQEYDYWGQGTQVTVSS", "polyreactivity (PSR sort gate)": "high polyreactivity"}
{"ordered residues": "QDQLVDSGGGLVQAGGSLSLSCAASGRNFGLNAKGWYRQAPGKEREFVAAIDWNDASTFYADSVKGRFTISRDNAENTVYLQMNSLKPVETAVYYCAAPWWVTTGTKFDYWGQGTQVTVSS", "polyreactivity (PSR sort gate)": "high polyreactivity"}
{"ordered residues": "QVQLVESGGGLVQAGGSLRLSCAASGSTFLTNVMGWYRPAPGQERELVAAITIGGSTNYADSVKGRFTISRDNAKNTVYLQMNILKPEDTAVYYCATDIRRKPRYVDYEYWGQGTQVTVSS", "polyreactivity (PSR sort gate)": "low polyreactivity"}
{"ordered residues": "QVQLVESGGGLVQAGGSLRLSCAASGGTFRSNAMGWYRQAPGKERELVAAISKRGGSTHYADSVKGRFTISRDNSKNTVYLQMNSLKPEDTAVYYCNTYGWQEGDYWGQGTQVTVSS", "polyreactivity (PSR sort gate)": "high polyreactivity"}

For QVQLVESGGGLVQAGGSLRLSCAASGFILLYYAMGWYRQAPGKERELVAANSWTGGRTYYADSVKGRFTISRDNAKNTVYLQMTSLKPEDSAVYYCNTDKFFGRKYGYWGQGTQVTVSS , what is its reported polyreactivity (PSR sort gate)?
low polyreactivity

* * *

Experiment: yeast display, Sf9 membrane polyspecificity reagent, FACS + sequencing; frameworks hold sequencing errors
recorded metric: polyreactivity (PSR sort gate)

{"ordered residues": "QVQLVESGGGLVQAGGSLRLSCAASGRTFLIYAMGWYRQAPGKERELVAAINFSGGNTYYADSVKGRFTISRDNAKNTVYLQMNSLKPEDTAVYYCAARYRIGNNGYEYWGQGTQVTVSS", "result": "low polyreactivity"}
{"ordered residues": "QVQLVESGGGLVQAGGSLRLSCAASGITFGRYAMGWYREAPGKERELVAAISRRGGSTHYADSVKGRFTISRDNAKNTVYLQMNSLKPEDTAVYYCNASPYRYRPSEYDYWGQGTQVTVSS", "result": "high polyreactivity"}
{"ordered residues": "QVQLVESGGGLVQAGGSLRLSCAASGSILFYNAMGWYRQAPGKERELVAAISSGGSTYYADSVKGRFTISRDNAKNTVYLQMNSLKPEDTAVYNCAARRRYSSVYYYYTTRRGYWGQGTQVTVSS", "result": "high polyreactivity"}
{"ordered residues": "QVQLVESGGGLVQAGGSLRLSCADSGRTFYYYAMGWYRQAPGKEREFVAAITTRGGSTYYADSVKGRFTISRDNAKNTVYLQMNSLTPEDTAVYYCAARYTGRQGVYKTYYYWGQGTQVTVSS", "result": "high polyreactivity"}

Next:
Form field: reported polyreactivity (PSR sort gate) of QVQLLESGGGLVQAGGSLRLSCAPSGRTFVFNGRGWYRPATAKERELVAAINRSGGSTYYAVSVKGRFTISRDNGKNTVYLQMNSLKPEDTAVYYCLIQHNGLGYWGQGTQVTVSS
low polyreactivity
